As shown below, each of these molecules has a reported Emax value.
Biological target: mouse P23H opsin mutant (Mus musculus, UniProt P15409, P23H)
Sequence (P15409 whole entry P23H, the tested form may be a part): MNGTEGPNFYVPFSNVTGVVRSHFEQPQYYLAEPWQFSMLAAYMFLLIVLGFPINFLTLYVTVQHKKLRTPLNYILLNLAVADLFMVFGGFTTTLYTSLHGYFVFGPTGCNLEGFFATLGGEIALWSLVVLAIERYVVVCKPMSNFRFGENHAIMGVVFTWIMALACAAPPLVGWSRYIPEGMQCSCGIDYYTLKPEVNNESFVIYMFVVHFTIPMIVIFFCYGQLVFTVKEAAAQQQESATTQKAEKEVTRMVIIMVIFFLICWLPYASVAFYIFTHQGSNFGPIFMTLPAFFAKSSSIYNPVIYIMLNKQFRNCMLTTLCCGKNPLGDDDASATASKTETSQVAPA
Assay: β-Gal fragment complementation assay: rescue of P23H opsin transport from ER to plasma membrane, U2OS(PLC-EA/P23H-PK) cells
Format: cell-based
Conditions: U2OS; Table 1; experimental maximum; read-out: β-Gal fragment complementation assay Activity score (%) Max (Exp)

| MOLECULE | Emax |
| --- | --- |
| O=C(NCCCOc1cccc2cccnc12)c1cc(-c2ccccc2)on1 | 31.8% |
| Cc1cc(OCC(=O)Nc2cc(N3CCOCC3)ncn2)cc(C)c1Cl | 211% |
| CC1=C(/C=C/C(C)=C\C=C\C(C)=C\C=O)C(C)(C)CCC1 [9-cis-retinal, reference compound] | 123% |
| O=C(Cn1c2c(c(=O)n(C3CCCCC3)c1=O)CCC2)Nc1cccc(F)c1 | 60.4% |
| O=C(C1CC1)N(CCn1cccn1)c1nc2c(Cl)cccc2s1 | 244% |
| O=C1OCC(c2ccc(Cl)s2)=C1c1cccs1 | 310% |
| O=C(NCC#CCN1CCCC1)c1cc(-c2ccccc2)on1 | 24.8% |
